Here the recorded Ratio Ki is given for each entry.
Assay: Selectivity index, ratio of Ki for mouse kappa opioid receptor expressed in CHO cells to Ki for mouse mu opioid receptor expressed in CHO cells
// no unit string in output, number only

// known answers, use as guide
# molecular_string, Ratio Ki
records = [
    ("Cl.O=C(N[C@H]1CC[C@@]2(O)[C@H]3Cc4ccc(O)c5c4[C@@]2(CCN3CC2CC2)[C@H]1O5)c1cccc2sccc12", 9),
    ("Cl.O=C(N[C@@H]1CC[C@@]2(O)[C@H]3Cc4ccc(O)c5c4[C@@]2(CCN3CC2CC2)[C@H]1O5)c1cc2ccccc2o1", 1.4),
    ("Cl.O=C(N[C@H]1CC[C@@]2(O)[C@H]3Cc4ccc(O)c5c4[C@@]2(CCN3CC2CC2)[C@H]1O5)c1coc2ccccc12", 12.5),
    ("Cl.O=C(N[C@@H]1CC[C@@]2(O)[C@H]3Cc4ccc(O)c5c4[C@@]2(CCN3CC2CC2)[C@H]1O5)c1cccc2occc12", 4.7),
    ("Cl.O=C(N[C@@H]1CC[C@@]2(O)[C@H]3Cc4ccc(O)c5c4[C@@]2(CCN3CC2CC2)[C@H]1O5)c1coc2ccccc12", 2.3),
]

Please turn your attention to the following entry.
[Q] What value of Ratio Ki has been recorded for this entry: Cl.O=C(N[C@@H]1CC[C@@]2(O)[C@H]3Cc4ccc(O)c5c4[C@@]2(CCN3CC2CC2)[C@H]1O5)c1ccc2occc2c1
[A] 1.4

====

Target: Kappa-type opioid receptor (Mus musculus, UniProt P33534)
Here the recorded pKi is given for each entry.
By convention, pKi is the negative base-10 log of a molar concentration.

# molecular_string, numeric_value
records = [
    ("Cl.O=C(N[C@H]1CC[C@@]2(O)[C@H]3Cc4ccc(O)c5c4[C@@]2(CCN3CC2CC2)[C@H]1O5)c1cccc2ccsc12", 8.58),
]

[Q] What value of pKi has been recorded for this entry: Cl.O=C(N[C@H]1CC[C@@]2(O)[C@H]3Cc4ccc(O)c5c4[C@@]2(CCN3CC2CC2)[C@H]1O5)c1coc2ccccc12
[A] 8.47

[Q] Okay, and Cl.O=C(N[C@H]1CC[C@@]2(O)[C@H]3Cc4ccc(O)c5c4[C@@]2(CCN3CC2CC2)[C@H]1O5)c1ccc2ccoc2c1 ?
[A] 8.78

====

Target: Mu-type opioid receptor (Mus musculus, UniProt P42866)
Assay: Agonist activity at recombinant mouse mu opioid receptor expressed in CHO cell membrane assessed as [35]-GTPgammaS binding incubated for […] by scintillation counting method
measurement_label: EC50 (nM)
Respond numerically; units are nM and should not be typed.

[Q] What value of EC50 has been recorded for this entry: Cl.O=C(N[C@H]1CC[C@@]2(O)[C@H]3Cc4ccc(O)c5c4[C@@]2(CCN3CC2CC2)[C@H]1O5)c1ccc2occc2c1
[A] 3.72

[Q] Okay, and Cl.O=C(N[C@H]1CC[C@@]2(O)[C@H]3Cc4ccc(O)c5c4[C@@]2(CCN3CC2CC2)[C@H]1O5)c1cc2ccccc2o1 ?
[A] 5.52

[Q] Okay, and Cl.O=C(N[C@@H]1CC[C@@]2(O)[C@H]3Cc4ccc(O)c5c4[C@@]2(CCN3CC2CC2)[C@H]1O5)c1cc2ccccc2s1 ?
[A] 0.24

[Q] Okay, and Cl.O=C(N[C@H]1CC[C@@]2(O)[C@H]3Cc4ccc(O)c5c4[C@@]2(CCN3CC2CC2)[C@H]1O5)c1ccc2ccoc2c1 ?
[A] 2.23

[Q] Okay, and Cl.O=C(N[C@@H]1CC[C@@]2(O)[C@H]3Cc4ccc(O)c5c4[C@@]2(CCN3CC2CC2)[C@H]1O5)c1ccc2occc2c1 ?
[A] 0.41

[Q] Okay, and Cl.O=C(N[C@H]1CC[C@@]2(O)[C@H]3Cc4ccc(O)c5c4[C@@]2(CCN3CC2CC2)[C@H]1O5)c1csc2ccccc12 ?
[A] 1.85
